# TGT: IRAK4 (Homo sapiens (Human))
# Sequence (Q9NWZ3 whole entry): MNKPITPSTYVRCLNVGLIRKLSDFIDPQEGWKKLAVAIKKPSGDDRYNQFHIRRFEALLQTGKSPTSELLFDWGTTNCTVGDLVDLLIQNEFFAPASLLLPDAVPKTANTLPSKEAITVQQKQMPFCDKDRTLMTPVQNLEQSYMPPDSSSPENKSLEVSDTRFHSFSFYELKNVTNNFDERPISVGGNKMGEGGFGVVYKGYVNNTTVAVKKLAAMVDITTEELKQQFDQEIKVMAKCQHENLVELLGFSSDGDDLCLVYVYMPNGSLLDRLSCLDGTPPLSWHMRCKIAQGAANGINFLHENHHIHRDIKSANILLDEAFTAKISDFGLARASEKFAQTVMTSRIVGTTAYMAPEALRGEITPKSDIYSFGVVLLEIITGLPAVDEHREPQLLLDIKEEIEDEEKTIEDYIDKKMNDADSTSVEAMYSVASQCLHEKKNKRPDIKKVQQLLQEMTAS
# MEASUREMENT_DESCRIPTION: IRAK4 kinase activity, IMAP fluorescence polarization assay
# Format: biochemical
# EXPERIMENTAL_CONTEXT: 100 μM ATP, 0.5 nM GST tagged IRAK4; read-out: IRAK4 IC50
QUANTITY_KIND: IC50 (nM)

C[C@@H]1CC[C@@H](Nc2nc(N3CCOCC3)[nH]c(=O)c2-c2ccc3ccccc3n2)CN1 (racemic)    38

I: Cc1ccc(-c2c(N[C@@H]3CCCNC3)nc(N3CCOCC3)[nH]c2=O)nc1
II: O=c1[nH]c(N2CCCC2)nc(N[C@@H]2CCCNC2)c1-c1nc2c(C3CC3)nccc2s1
III: O=c1[nH]c(NC2CCNC2)nc(N[C@@H]2C[C@H](CO)[C@@H](O)[C@H]2O)c1-c1nc2ccccc2s1 (stereo partly drawn)
IV: O=c1[nH]c(N2CCOCC2)nc(N[C@@H]2CCCNC2)c1-c1nc2cccc(Cl)c2s1
V: O=c1[nH]c(N2CCOCC2)nc(N[C@H]2CNC[C@H](O)C2)c1-c1nc2ccccc2s1
Input line: Please order the records by their reported IC50, lowest number first. Give me the labels in the order the question wants.
Output line: II, V, IV, I, III

P: O=c1[nH]c(OC2CCC2)nc(N[C@@H]2C[C@H](CO)[C@@H](O)[C@H]2O)c1-c1nc2ccccc2s1
Q: O=c1[nH]c(N2CCOCC2)nc(N[C@@H]2CCCNC2)c1-c1csc(-n2cccc2)n1
Input line: In the pair P and Q , the larger recorded IC50 belongs to which? Provide the label of your selected option as the answer.
Output line: P

P: NCCNc1cccc2sc(-c3c(N[C@@H]4CCCNC4)nc(N4CCOCC4)[nH]c3=O)nc12
Q: O=c1[nH]c(N2CCOCC2)nc(N[C@@H]2CCCNC2)c1-c1nc2cc(Cl)ccc2s1
R: O=c1[nH]c(N2CCOCC2)nc(N[C@@H]2CCCNC2)c1-c1nc(-c2ccc(F)cc2)cs1
Input line: Put the entries in order of IC50, starting with the largest number. Give me the labels in the order the question wants.
Output line: R, P, Q
(R: 24 nM, P: 16 nM, Q: 8 nM)

I: CN1CCN(c2nc(N[C@@H]3CCCNC3)c(-c3ccc4ccccc4n3)c(=O)[nH]2)CC1
II: O=c1[nH]c(N[C@H]2CCCNC2)nc(N[C@@H]2C[C@H](CO)[C@@H](O)[C@H]2O)c1-c1nc2ccccc2s1
III: Cc1cc2sc(-c3c(N[C@@H]4C[C@H](CO)[C@@H](O)[C@H]4O)nc(N4CCOCC4)[nH]c3=O)nc2c(C)n1
IV: O=c1[nH]c(N2CCC2)nc(N[C@@H]2C[C@H](CO)[C@@H](O)[C@H]2O)c1-c1nc2ccccc2s1
Input line: Put the entries in order of IC50, starting with the largest number. Give me the labels in the order the question wants.
Output line: II, III, I, IV
(II: 4260 nM, III: 923 nM, I: 97 nM, IV: 67 nM)

Just for reference, patent US9221809B2 is where these values come from.
